Reference source: patent US20200369728A1

- Test system: Caspase 3
- TEST_PROTOCOL: Caspase 3 detection assay in SJSA1 cells
- Assay type: cell-based
- MEASUREMENT_SETUP: 3 μM, SJSA1, 48 h, Caspase 3 activation over DMSO-treated cells
Bridge positions count the residues as written; N and C are the ends. Square brackets hold non-standard residues; d marks the D form. Peptide text beside a SMILES is read from it. R8 = C=CCCCCCC[C@@](C)(N)C(=O)O; S5 = C=CCCC[C@](C)(N)C(=O)O
REPORTED_ENDPOINT: caspase 3 μM

query: Please tell me: caspase 3 μM of CC(=O)N[C@@H](CC(C)C)C(=O)N[C@H](C(=O)N[C@@H](Cc1ccccc1)C(=O)N[C@]1(C)CCCCCCC=CCCC[C@@](C)(C(=O)N[C@@H](CO)C(=O)N[C@@H](C)C(=O)N[C@@H](Cc2ccccc2)C(N)=O)NC(=O)[C@H](CC(C)C)NC(=O)[C@H](CCC(N)=O)NC(=O)[C@H](C)NC(=O)[C@H](Cc2c[nH]c3ccccc23)NC(=O)[C@H](Cc2ccc(O)cc2)NC(=O)[C@H](C)NC1=O)[C@@H](C)O [compound 7] (Ac-LTF[R8]AYWAQL[S5]SAF-NH2; staple 4-11) , system Caspase 3?
result: 5.08
